src = patent US11530244B2

EXPERIMENTAL SYSTEM: PCSK9 (Homo sapiens (Human))
Sequence (Q8NBP7 153-692): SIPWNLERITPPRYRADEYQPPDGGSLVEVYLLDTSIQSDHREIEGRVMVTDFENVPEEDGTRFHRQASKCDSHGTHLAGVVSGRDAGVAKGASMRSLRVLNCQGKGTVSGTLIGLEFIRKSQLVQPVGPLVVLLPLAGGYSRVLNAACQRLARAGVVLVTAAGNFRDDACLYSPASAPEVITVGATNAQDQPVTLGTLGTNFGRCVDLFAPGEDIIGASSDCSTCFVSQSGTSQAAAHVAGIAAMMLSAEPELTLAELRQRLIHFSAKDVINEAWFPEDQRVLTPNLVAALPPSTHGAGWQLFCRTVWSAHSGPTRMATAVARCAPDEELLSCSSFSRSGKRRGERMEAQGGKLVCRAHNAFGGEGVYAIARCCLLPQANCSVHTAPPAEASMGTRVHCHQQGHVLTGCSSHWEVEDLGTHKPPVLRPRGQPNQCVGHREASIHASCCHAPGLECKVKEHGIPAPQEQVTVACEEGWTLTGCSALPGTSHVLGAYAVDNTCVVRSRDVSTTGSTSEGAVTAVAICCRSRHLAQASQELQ
EXPERIMENTAL PROTOCOL: PCSK9 Alexa FRET Standard assay (displacement of AlexaFluor647 tagged cyclic peptide Reagent A)
Type: binding
RUN CONDITIONS: PCSK9 Alexa FRET Standard assay, 0.5 nM PCSK9, 20 nM AF cyclic peptide Reagent A; read-out: IC50
pIC50: −log10 of the molar value. Starred links: 1 amine or outer side, 2 acyl side, 3 side chain; linkers in the order of their positions; H or OH if unused. Positions of bridges follow the written chain, without caps; N, C: chain ends. Non-standard residues stand in square brackets, D forms with d. Residues, ends and D or L forms follow the SMILES beside them. Trp(βS-Me) = C[C@@H](c1c[nH]c2ccccc12)[C@H](N)C(=O)O; Trp(5-F) = N[C@@H](Cc1c[nH]c2ccc(F)cc12)C(=O)O; Pro(cis-4-F) = O=C(O)[C@@H]1C[C@H](F)CN1; X23 = CC[C@@]1(C(=O)[*:2])CCCN1[*:1]; mXylylene = c1cc(C[*:1])cc(C[*:2])c1; αMeP = C[C@@]1(C(=O)O)CCCN1; Orn = NCCC[C@H](N)C(=O)O; X2 = O=C(C[*:2])[*:1]; Mpa = O=C(O)CCS
EXPERIMENTAL READOUT: pIC50

Worked examples, 4 molecules total:
CC[C@@]12CCCN1C(=O)[C@H](Cc1ccc(O)cc1)NC(=O)[C@H]([C@@H](C)O)NC(=O)[C@@H]1CCCN1C(=O)[C@H](Cc1c[nH]c3ccc(F)cc13)NC(=O)[C@H](Cc1c[nH]c3ccc(F)cc13)NC(=O)CNC(=O)[C@H](CCCCN)NC(=O)CCSCc1cccc(c1)CSC[C@@H](C(N)=O)NC2=O [Compound 045] ([Mpa]KG[Trp(5-F)][Trp(5-F)]PTY[X23]C-NH2; linker 1-10 via mXylylene); 4.92 to 6.00
C[C@@]12CCCN1C(=O)[C@H](Cc1ccc(O)cc1)NC(=O)N[C@@H]1CCCc3ccc(cc31)C(=O)[C@H](Cc1c[nH]c3ccc(F)cc13)NC(=O)[C@H](Cc1c[nH]c3ccc(F)cc13)NC(=O)CNC(=O)[C@H](CCCCN)NC(=O)CCSCc1cccc(c1)CSC[C@@H](C(N)=O)NC2=O; 7.00 to 9.96
CC[C@H](C)[C@@H]1NC(=O)[C@@H]2CCCN2C(=O)[C@H](Cc2c[nH]c3ccc(F)cc23)NC(=O)[C@H](Cc2c[nH]c3ccc(F)cc23)NC(=O)CNC(=O)[C@H](CCCCN)NC(=O)CCSCc2cccc(c2)CSC[C@@H](C(N)=O)NC(=O)[C@]2(C)CCCN2C(=O)[C@H](Cc2ccc(O)cc2)NC1=O [Compound 006] ([Mpa]KG[Trp(5-F)][Trp(5-F)]PIY[αMeP]C-NH2; linker 1-10 via mXylylene); 4.30 to 4.68
C[C@@H](c1c[nH]c2ccccc12)[C@@H]1NC(=O)CNC(=O)[C@H](CCCCN)NC(=O)CCSCc2cccc(c2)CSC[C@@H](C(N)=O)NC(=O)[C@]2(C)CCCN2C(=O)[C@H](Cc2ccc(O)cc2)NC(=O)[C@H](Cc2cnc[nH]2)NC(=O)[C@H](CC(=O)O)NC(=O)[C@H](Cc2c[nH]c3ccc(F)cc23)NC1=O [Compound 430] ([Mpa]KG[Trp(βS-Me)][Trp(5-F)]DHY[αMeP]C-NH2; linker 1-10 via mXylylene); 4.92 to 6.00

Please turn your attention to the following entry.
// query So what's the measured pIC50 for this one? COc1ccc(C[C@@H]2NC(=O)[C@H]([C@@H](C)O)NC(=O)[C@@H]3C[C@H](F)CN3C(=O)[C@H](Cc3c[nH]c4ccc(F)cc34)NC(=O)[C@H](Cc3c[nH]c4ccc(F)cc34)NC(=O)[C@@H](C)NC(=O)[C@H](CCCCN)NC(=O)[C@@H](NC(C)=O)CCCNC(=O)COc3ccc(cc3)C[C@@H](C(N)=O)NC(=O)[C@]3(C)CCCN3C2=O)cc1 [Compound 091] (Ac-[Orn]K[dA][Trp(5-F)][Trp(5-F)][Pro(cis-4-F)]TY(Me)[αMeP]Y-NH2; linker 1-10 via X2)
// result 7.00 to 9.96

====

EXPERIMENTAL SYSTEM: UniProt:Q8NBP7
EXPERIMENTAL PROTOCOL: PCSK9 Alexa FRET Standard assay (displacement of AlexaFluor647 tagged cyclic peptide Reagent A)
Format: binding
RUN CONDITIONS: PCSK9 Alexa FRET Standard assay, 0.5 nM PCSK9, 20 nM AF cyclic peptide Reagent A; read-out: IC50
Starred links: 1 amine or outer side, 2 acyl side, 3 side chain; linkers in the order of their positions; H or OH if unused. Positions of bridges follow the written chain, without caps; N, C: chain ends. Non-standard residues stand in square brackets, D forms with d. Residues, ends and D or L forms follow the SMILES beside them. Trp(5-F) = N[C@@H](Cc1c[nH]c2ccc(F)cc12)C(=O)O; dTrp(5-F) = N[C@H](Cc1c[nH]c2ccc(F)cc12)C(=O)O; Phe(4-CH2NH2) = NCc1ccc(C[C@H](N)C(=O)O)cc1; X4 = O=C(CCSCc1cccc(CSCCN[*:1])c1)[*:2]; Glutaryl = O=C(CCCC(=O)[*:2])[*:1]; X8 = Clc1cc(C[*:1])cc(C[*:2])c1; aThr = C[C@H](O)[C@H](N)C(=O)O; d(αMeP) = C[C@]1(C(=O)O)CCCN1; Tle = CC(C)(C)[C@H](N)C(=O)O; αMeP = C[C@@]1(C(=O)O)CCCN1; Mpa = O=C(O)CCS
This listing pairs compounds with measured IC50.

COc1ccc(C[C@@H]2NC(=O)[C@H](Cc3cnc[nH]3)NC(=O)[C@H](CC(=O)O)NC(=O)[C@H](Cc3c[nH]c4ccc(F)cc34)NC(=O)[C@H](Cc3c[nH]c4ccc(F)cc34)NC(=O)[C@@H](C)NC(=O)CCCC(=O)NCc3ccc(cc3)C[C@@H](C(N)=O)NC(=O)[C@]3(C)CCCN3C2=O)cc1 [Compound 417] ([dA][Trp(5-F)][Trp(5-F)]DHY(Me)[αMeP][Phe(4-CH2NH2)]-NH2; linker N-8 via Glutaryl); 0.11 to 100 nM
COc1ccc(C[C@@H]2NC(=O)[C@@H]3CCC/C=C\CO[C@H]4C[C@@H](C(=O)N3)N(C4)C(=O)[C@H](Cc3c[nH]c4ccc(F)cc34)NC(=O)[C@H](Cc3c[nH]c4ccc(F)cc34)NC(=O)[C@@H](C)NC(=O)CCCCCC(=O)NCc3ccc(cc3)C[C@@H](C(N)=O)NC(=O)[C@]3(C)CCCN3C2=O)cc1; 0.11 to 100 nM
COc1ccc(C[C@H]2NC(=O)[C@@H](Cc3c[nH]cn3)NC(=O)[C@@H](CC(=O)O)NC(=O)[C@@H](Cc3c[nH]c4ccc(F)cc34)NC(=O)[C@@H](Cc3c[nH]c4ccc(F)cc34)NC(=O)[C@H](C(C)(C)C)NC(=O)[C@@H](CCCCN)NC(=O)CCSCc3cccc(c3)CSCCNC(=O)[C@@]3(C)CCCN3C2=O)cc1 [Compound 362] (cyclo([Tle][dTrp(5-F)][dTrp(5-F)][dD][dH][dY](Me)[d(αMeP)][X4][dK])); 0.11 to 100 nM

// query Suppose we examine the compound C[C@@]12CCCN1C(=O)[C@H](Cc1ccc(O)cc1)NC(=O)[C@H]1CS[C@H]3CC[C@H](NC(=O)[C@H](Cc4c[nH]c5ccc(F)cc45)NC(=O)[C@H](Cc4c[nH]c5ccc(F)cc45)NC(=O)CNC(=O)[C@H](CCCCN)NC(=O)CCSCc4cccc(c4)CSC[C@@H](C(N)=O)NC2=O)C(=O)N31 ; what IC50 value has been reported?
// result 21000 to 50000 nM

// query Same question for C[C@@]12CCCN1C(=O)[C@H](Cc1ccc(O)cc1)NC(=O)[C@H](Cc1c[nH]cn1)NC(=O)[C@H](CC(=O)O)NC(=O)[C@H](Cc1c[nH]c3ccc(F)cc13)NC(=O)[C@H](Cc1c[nH]c3ccc(F)cc13)NC(=O)CNC(=O)[C@H](CCCCN)NC(=O)CCSCc1cc(Cl)cc(c1)CSC[C@@H](C(N)=O)NC2=O [Compound 358] ([Mpa]KG[Trp(5-F)][Trp(5-F)]DHY[αMeP]C-NH2; linker 1-10 via X8) please.
// result 0.11 to 100 nM

// query Record: CO[C@@H](C)[C@@H]1NC(=O)[C@@H]2CCCN2C(=O)[C@H](Cc2c[nH]c3ccc(F)cc23)NC(=O)[C@H](Cc2c[nH]c3ccc(F)cc23)NC(=O)[C@@H](C)NC(=O)[C@H](CCCCN)NC(=O)CCSCc2cccc(c2)CSCCNC(=O)[C@]2(C)CCCN2C(=O)[C@H](Cc2ccc(O)cc2)NC1=O [Compound 071] (cyclo(K[dA][Trp(5-F)][Trp(5-F)]P[aThr](Me)Y[αMeP][X4]))
// result 21000 to 50000 nM
